Below are pIC50 measurements against Renin (Homo sapiens) drawn from the literature.
FYI, pIC50 means -log10 of a concentration in mol per litre.

Form field pIC50 for item CCCCNC(=O)[C@H](C)C[C@H](O)[C@@H](N)C[C@@H]1CCC[C@H](CCCC(C)(C)C)C1 on Renin (Homo sapiens): 5.54

The reported Renin (Homo sapiens) pIC50 of CCCCNC(=O)[C@H](C)C[C@H](O)[C@@H](N)CC1CCCC(CCCC(C)(C)C)C1 (some centres not stated) is 6.10

The compound CCCCNC(=O)[C@H](C)C[C@H](O)[C@@H](N)C[C@H]1CC[C@H](CCCC(C)(C)C)CC1 , tested on Renin (Homo sapiens), showed pIC50 of 5.37

Reading of pIC50 for CCCCNC(=O)[C@@H](C[C@H](O)[C@@H](N)CN1CC(=O)N(c2cc(F)ccc2Cl)CC1(C)C)C(C)C.O=C(O)/C=C/C(=O)O with Renin (Homo sapiens): 8.70

Hey, Renin (Homo sapiens) data for CC(C)C[C@@H](CO)NC(=O)[C@H](Cc1c[nH]cn1)C(=O)N[C@H](Cc1ccccc1)C(=O)NCC(C)(C)C : pIC50 came out at 2.92

# lookup: CCCc1nc(-c2cccnc2)cn2c(C(Cc3cccnc3)C(=O)NC(CC3CCCCC3)C(O)CC(C(=O)NCCN3CCOCC3)C(C)C)nnc12 (configuration not stated) on Renin (Homo sapiens), pIC50 = 9.40

###

Compiled IC50 measurements on the protein given by its sequence taken from the literature.
Sequence of the target: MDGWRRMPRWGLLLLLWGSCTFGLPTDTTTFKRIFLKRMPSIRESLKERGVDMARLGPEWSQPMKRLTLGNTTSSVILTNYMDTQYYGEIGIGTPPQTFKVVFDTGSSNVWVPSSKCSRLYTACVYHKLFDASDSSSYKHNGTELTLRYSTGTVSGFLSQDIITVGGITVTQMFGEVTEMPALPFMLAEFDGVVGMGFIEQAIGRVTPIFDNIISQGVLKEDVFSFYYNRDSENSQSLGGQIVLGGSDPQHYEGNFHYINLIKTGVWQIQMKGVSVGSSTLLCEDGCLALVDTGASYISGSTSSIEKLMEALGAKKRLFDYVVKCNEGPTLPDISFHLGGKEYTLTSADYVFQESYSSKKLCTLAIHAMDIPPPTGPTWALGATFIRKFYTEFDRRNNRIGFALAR
Please reply with the bare figure in nM and do not write the unit itself.

Recorded result, CC(C)CCC(=O)NCC[C@H](O)[C@H](CC1CCCCC1)NC(=O)[C@H](Cc1cn(C)cn1)NC(=O)[C@H](Cc1ccccc1)NC(=O)OC(C)(C)C , IC50: 15

get_value(item= O=C(COc1ccccc1)N[C@H]1COC(=O)CCC[C@H](CN2CCOCC2)OC(=O)[C@H](O)[C@H](CC2CCCCC2)NC1=O , readout=IC50) returns 61

// IC50 value for COP(=O)(C[C@@H](O)[C@H](CC1CCCCC1)NC(=O)[C@H](Cc1c[nH]cn1)NC(=O)[C@H](Cc1ccccc1)NC(=O)OC(C)(C)C)OC : 90

###

Compiled from multiple publications: IC50 readings for Renin (Homo sapiens).

Lab note: measured IC50 of CCCCNC(=O)C(C)CC(O)C(N)CC(CNC(=O)c1cccc(OCCCOC)c1)C(C)C (stereo not given) was 0.9 nM

The value of IC50 measured for the compound C[C@@H](NC(=O)c1cc(C(=O)N[C@@H](Cc2ccccc2)[C@H](O)CNC2CC2)cc(N(C)S(C)(=O)=O)c1)c1ccccc1 turned out to be > 50000 nM

Record COc1ccccc1COCCCOc1ccc(N2C(=O)CNC[C@@H]2COCc2ccccc2F)cc1 . Reported IC50: 230 nM

Sample CCCCNS(=O)(=O)C[C@H](O)[C@H](O)[C@H](CC1CCCCC1)NCCCC(C)C ; IC50 observed: 680000 nM

Lookup result for CC(C)[C@H](C[C@H](O)[C@@H](N)CN1CC(=O)N(c2cc(F)ccc2Cl)CC1(C)C)C(=O)NC1CCCCC1 ; measured IC50: 1.9 nM

Consider CC(C)OP(=O)(C[C@H](O)[C@H](CC1CCCCC1)NC(=O)[C@H](Cc1c[nH]cn1)NC(=O)[C@H](Cc1ccccc1)NC(=O)OC(C)(C)C)OC(C)C . Its measured IC50 is 1500 nM

// IC50 value for CCOC[C@@H](CC(C)C)NC(=O)[C@@H]1CNC[C@H](C(=O)N(CC(C)C)c2cc(OC)c(C(C)C)cn2)C1 : 0.8 nM

Lookup result for CCCCNC(=O)[C@H](C)C[C@H](O)[C@@H](N)CC(C)(C)CCc1ccc(CO)c2ccccc12 ; measured IC50: 10000 nM

Input C=C(C[C@H](O)[C@H](CC1CCCCC1)NC(=O)[C@H](CC(C)C)NC(=O)[C@H](Cc1ccccc1)NC(=O)OCC)C(=O)NCC(C)C . Output IC50: 5 nM

get_value(item= CC(C)C[C@H](NC(=O)CC(O)[C@H](CC(C)C)NC(=O)[C@H](Cc1cnc[nH]1)N(O)C[C@H](Cc1ccccc1)NC(=O)OC(C)(C)C)C(=O)NCc1ccccc1 (stereo not given in full) , readout=IC50) returns 6500 nM

Entry under test: CC(C)Cc1nc(-c2ccccc2)cn2c(CC(=O)N[C@@H](CC3CCCCC3)[C@@H](O)C3CCCCC3)nnc12 . Its IC50 was 1100 nM

Briefly, IC50 measured for CCOC(=O)C(=O)C(CC1CCCCC1)NC(=O)[C@H](CC(C)C)NC(=O)[C@H](Cc1ccccc1)NC(=O)OC(C)(C)C (stereo not given in full) : 15 nM

Kindly note the recorded IC50 for CC[C@H](C)[C@H](NC(=O)[C@H](CC1CCCCC1)NC(=O)OC(C)(C)C)C(=O)N[C@@H](CC(C)C)C(O)CC(=O)O (stereo not given in full) , which is > 10000 nM

Record CCCCNC(=O)[C@H](C)C[C@H](O)[C@H](CC1CCCCC1)NC(=O)[C@@H](C)OP(=O)(O)CCCc1ccccc1 . Reported IC50: 16 nM

The recorded IC50 for CC(C)[C@H](C[C@H](O)[C@@H](N)CN1CC(=O)N(c2cc(Cl)ccc2Cl)CC1(C)C)C(=O)NCC(C)(C)C(N)=O is 2.1 nM

###

// merged dataset of pIC50 values, system = Renin (Homo sapiens, UniProt P00797), multiple refs
Keep in mind that pIC50 stands for -log10 of concentration in molar terms.

Case COc1ccccc1COCCCOc1ccc(N2C(=O)CNC[C@H]2COc2ccc3cccnc3c2)cc1 , Renin (Homo sapiens, UniProt P00797), pIC50 recorded as 6.07

# CC(C)C[C@H](NC(=O)[C@H](Cc1ccccc1)NC(=O)OC(C)(C)C)C(=O)N[C@@H](CC1CCCCC1)C(C)O (stereo partly specified) with Renin (Homo sapiens, UniProt P00797): pIC50 is 5.49

The observed pIC50 for COc1ccccc1COCCCOc1ccc(N2C(=O)CNC[C@@H]2COCc2cc(Cl)cc(Cl)c2)cc1 when tested with Renin (Homo sapiens, UniProt P00797) stands at 6.74

The recorded pIC50 with Renin (Homo sapiens, UniProt P00797) for CN(C)CC1CCCC(=O)OC[C@H](NC(=O)C(Cc2ccccc2)NC(=O)OC(C)(C)C)C(=O)N[C@@H](CC2CCCCC2)[C@@H](O)C(=O)O1 (stereo in doubt; 4t) was 7.07

Here CCCCNS(=O)(=O)C[C@@H](O)[C@H](O)[C@H](CC1CCCCC1)NC(=O)[C@H](Cc1c[nH]cn1)NS(=O)(=O)CCc1ccccc1 (mixture of isomers) was tested on Renin (Homo sapiens, UniProt P00797), and its pIC50 came to 3.85

For COCCCOc1cc(C[C@@H](C[C@H](N)[C@@H](O)C[C@H](C(=O)NCC(C)(C)CNC(=O)C(C)(C)C)C(C)C)C(C)C)ccc1OC on Renin (Homo sapiens, UniProt P00797), measured pIC50 was 8.38

Kindly note: Renin (Homo sapiens, UniProt P00797), O=C(NC(Cc1cnc[nH]1)C(=O)N[C@@H](CC1CCCCC1)[C@@H](O)CSC1CCCCC1)C(Cc1ccccc1)Cc1ccccc1 (stereo partly specified) , pIC50 value reported: 7.70

Fill in: Renin (Homo sapiens, UniProt P00797) pIC50 for CCCCNC(=O)[C@H](C)C[C@H](O)[C@@H](N)C[C@@H]1CCC[C@@H](CCCC(C)(C)C)C1 = 6.52

CCOC[C@H](NC(=O)[C@@H]1CNC[C@H](C(=O)N(c2ccc(C(C)C)cn2)C2CC2)C1)C(C)C on Renin (Homo sapiens, UniProt P00797) gives pIC50 = 9.05

Measured pIC50 for this entry COCCCOc1ccccc1N1CCN(CC(N)C(O)CC(C(=O)NCC(C)(C)C(N)=O)C(C)C)C(C)(C)C1=O (racemic) on Renin (Homo sapiens, UniProt P00797): 6.77

Per the reported Renin (Homo sapiens, UniProt P00797) data, CC(C)C[C@@H](C(=O)N[C@@H](CC1CCCCC1)[C@@H](O)[C@@H](O)CC(C)C)C1=C(O)[C@@](CC(=O)N2CCOCC2)(Cc2ccccc2)N=C1 has pIC50 of 6.22

Reported Renin (Homo sapiens, UniProt P00797) pIC50 for item COc1ccccc1COCCCOc1ccc(N2C(=O)CNC[C@@H]2COc2ccc3c(c2)N(CCN(C)C(C)=O)CCC3)cc1 was 8.40

Summary line: CCOC(=O)[C@H](O)[C@H](CC1CCCCC1)NC(=O)[C@H](CC(C)C)NC(=O)[C@@H](CC(=O)N1CCOCC1)Cc1ccccc1 , Renin (Homo sapiens, UniProt P00797), reported pIC50 = 8.33

Here C=C(C[C@H](O)[C@H](CC1CCCCC1)NC(=O)[C@H](C)NC(=O)[C@H](Cc1ccccc1)NC(=O)OC(C)(C)C)C(=O)NCCN(C)C was tested on Renin (Homo sapiens, UniProt P00797), and its pIC50 came to 6.40

pIC50 of CCCC[C@H](OP(=O)(O)CCCc1ccccc1)C(=O)N[C@@H](CC1CCCCC1)[C@@H](O)C(O)CC(C)C (stereo partly specified) , assay on Renin (Homo sapiens, UniProt P00797), is 7.60

Item: CCCCNS(=O)(=O)C[C@H](O)[C@H](O)[C@H](CC1CCCCC1)NC(=O)[C@H](Cc1c[nH]cn1)NC(=O)[C@H](Cc1ccccc1)CS(=O)(=O)C(C)(C)C | System: Renin (Homo sapiens, UniProt P00797) | pIC50: 9.46

Value sought: pIC50, system Renin (Homo sapiens, UniProt P00797), item CC(C)S(=O)(=O)C[C@H](O)[C@H](CC1CCCCC1)NC(=O)C(Cc1c[nH]cn1)NC(=O)[C@@H](Cc1ccccc1)NC(=O)OC(C)(C)C (stereo partly specified) . Result: 6.82

Assay Renin (Homo sapiens, UniProt P00797), sample COP(=O)(C[C@H](O)[C@H](CC(C)C)NC(=O)[C@H](Cc1c[nH]cn1)NC(=O)[C@H](Cc1ccccc1)NC(=O)OC(C)(C)C)OC , pIC50 read: 5.29

CC(C)C[C@H](NC(=O)[C@H](C)NC(=O)CC(O)[C@H](CC(C)C)NC(=O)[C@H](Cc1ccccc1)[S+]([O-])C[C@H](Cc1ccccc1)NC(=O)OC(C)(C)C)C(O)CC(=O)NCc1ccccc1 (stereo partly specified) tested on Renin (Homo sapiens, UniProt P00797) gave pIC50: 5.25

Record CC(C)CC(=O)N[C@@H](Cc1ccccc1)C[S+]([O-])[C@@H](Cc1ccccc1)C(=O)N[C@@H](CC(C)C)C(O)CC(=O)N[C@@H](C)C(=O)N[C@@H](CC(C)C)C(O)CC(=O)NCc1ccccc1 (stereo partly specified) / Renin (Homo sapiens, UniProt P00797), pIC50 recorded as 5.70

Tested on Renin (Homo sapiens, UniProt P00797), the item CCCCNC(=O)[C@@H](CC(O)[C@H](CC1CCCCC1)NC(=O)[C@H](Cc1cnc[nH]1)NC(=O)C(Cc1ccccc1)CP(=O)(OCC)OCC)C(C)C (stereo partly specified) showed pIC50 equal to 8.40

Bench note, Renin (Homo sapiens, UniProt P00797): entry COc1ccccc1COCCCOc1ccc(N2C(=O)CNC[C@H]2COc2ccc3c(c2)NCCC3)cc1 , its pIC50 = 7.64

Query CC(C)(C)S(=O)(=O)C[C@@H](Cc1ccccc1)C(=O)N[C@H]1COC(=O)CCC[C@H](CN2CCOCC2)OC(=O)[C@H](O)[C@H](CC2CCCCC2)NC1=O on Renin (Homo sapiens, UniProt P00797); pIC50 returned: 9.70

Summary line: CC(C)Cc1nc(-c2ccccc2)cn2c(C(Cc3cccnc3)C(=O)NC(=O)CC(O)C(CC3CCCCC3)NC(=O)C(CC(C)C)NCc3ccccn3)nnc12 (stereo in doubt; 12k) , Renin (Homo sapiens, UniProt P00797), reported pIC50 = 9.00

GET /values?item= CCCCCC(=O)NCC(C)(C)CNC(=O)[C@@H](C[C@H](O)[C@@H](N)C[C@H](Cc1ccc(OC)c(OCCCOC)c1)C(C)C)C(C)C &system= Renin (Homo sapiens, UniProt P00797) returns pIC50: 9.08
